# System: Botrytis cinerea
# assay protocol: Percent growth of Botrytis cinerea after 72 hours of incubation
# Format: functional
# Design: concentration or dose not given beside the values
assay readout: Growth (%)
Quick reminder: number only, in %, skip the unit.

Q: Entry under review: "CCCCC/C=C/c1c(OC)cc(C)oc1=O" . Reported Growth?
Ans: 53

Q: Entry under review: "COc1cc(=O)oc(C)c1-c1ccccc1" . Reported Growth?
Ans: 47

Q: Entry under review: "COc1cc(=O)oc(C)c1/C=C/c1ccccc1" . Reported Growth?
Ans: 47

Q: Entry under review: "CCCC/C=C/c1c(OC)cc(C)oc1=O" . Reported Growth?
Ans: 51

Q: Entry under review: "COc1cc(=O)oc(C)c1-c1ccc(C)cc1" . Reported Growth?
Ans: 49

Q: Entry under review: "COc1ccc(-c2c(OC)cc(C)oc2=O)cc1" . Reported Growth?
Ans: 62

Q: Entry under review: "CCC/C=C/c1c(OC)cc(C)oc1=O" . Reported Growth?
Ans: 56

Q: Entry under review: "COc1ccc(-c2c(OC)cc(=O)oc2C)cc1" . Reported Growth?
Ans: 53

Q: Entry under review: "COc1cc(C)oc(=O)c1-c1ccccc1" . Reported Growth?
Ans: 63

Q: Entry under review: "COc1cc(C)oc(=O)c1/C=C/c1ccccc1" . Reported Growth?
Ans: 58

Q: Entry under review: "CCCCCC/C=C/c1c(OC)cc(C)oc1=O" . Reported Growth?
Ans: 60

Q: Entry under review: "COc1cc(C)oc(=O)c1-c1ccc(C)cc1" . Reported Growth?
Ans: 58

Q: Entry under review: "CCCCCC/C=C/c1cc(C)oc(=O)c1" . Reported Growth?
Ans: 42

Q: Entry under review: "CCCC/C=C/c1cc(C)oc(=O)c1" . Reported Growth?
Ans: 44

Q: Entry under review: "CCCC/C=C/c1c(OC)cc(=O)oc1C" . Reported Growth?
Ans: 33

Q: Entry under review: "CCCCC/C=C/c1cc(C)oc(=O)c1" . Reported Growth?
Ans: 45

====

# Tested on: Fusarium oxysporum
# assay protocol: Percent growth of Fusarium oxysporum after 7 days of incubation
# Format: functional
# Parameters: concentration or dose not given beside the values
Please respond with reported Growth for every item in the list.
Quick reminder: number only, in %, skip the unit.

Q: Entry under review: "CCC/C=C/c1c(OC)cc(C)oc1=O" . Reported Growth?
Ans: 48

Q: Entry under review: "COc1cc(C)oc(=O)c1/C=C/c1ccccc1" . Reported Growth?
Ans: 60

Q: Entry under review: "COc1cc(C)oc(=O)c1-c1ccc(Cl)cc1" . Reported Growth?
Ans: 60

Q: Entry under review: "COc1cc(=O)oc(C)c1/C=C/c1ccccc1" . Reported Growth?
Ans: 51

Q: Entry under review: "CCCCCC/C=C/c1c(OC)cc(=O)oc1C" . Reported Growth?
Ans: 46

Q: Entry under review: "COc1cc(=O)oc(C)c1-c1ccc(C)cc1" . Reported Growth?
Ans: 54

Q: Entry under review: "CCCC/C=C/c1cc(C)oc(=O)c1" . Reported Growth?
Ans: 25

Q: Entry under review: "COc1ccc(-c2c(OC)cc(=O)oc2C)cc1" . Reported Growth?
Ans: 61

Q: Entry under review: "CCC/C=C/c1cc(C)oc(=O)c1" . Reported Growth?
Ans: 45

Q: Entry under review: "COc1cc(C)oc(=O)c1-c1ccccc1" . Reported Growth?
Ans: 60

Q: Entry under review: "CCCCC/C=C/c1c(OC)cc(C)oc1=O" . Reported Growth?
Ans: 56

Q: Entry under review: "CCCCC/C=C/c1cc(C)oc(=O)c1" . Reported Growth?
Ans: 24

Q: Entry under review: "COc1cc(C)oc(=O)c1-c1ccc(C)cc1" . Reported Growth?
Ans: 60

Q: Entry under review: "CCCCC/C=C/c1c(OC)cc(=O)oc1C" . Reported Growth?
Ans: 24

Q: Entry under review: "CCCCCC/C=C/c1c(OC)cc(C)oc1=O" . Reported Growth?
Ans: 60

Q: Entry under review: "CCCCCC/C=C/c1cc(C)oc(=O)c1" . Reported Growth?
Ans: 30

====

# Test system: Escherichia coli
# assay protocol: Antimicrobial activity against Escherichia coli was determined after 96 hours of incubation
# Format: functional
We label by threshold. Values of Activity strictly beneath 6 mm are True. Values of 6 mm and up are False.

Q: Activity strictly < 6 mm for this compound? "COc1cc(C)oc(=O)c1-c1ccc(C)cc1"
Ans: False

Q: Activity strictly < 6 mm for this compound? "CCCCC/C=C/c1c(OC)cc(=O)oc1C"
Ans: False

Q: Activity strictly < 6 mm for this compound? "COc1cc(C)oc(=O)c1-c1ccccc1"
Ans: True

Q: Activity strictly < 6 mm for this compound? "COc1cc(C)oc(=O)c1/C=C/c1ccccc1"
Ans: True

Q: Activity strictly < 6 mm for this compound? "CCCCC/C=C/c1c(OC)cc(C)oc1=O"
Ans: True

Q: Activity strictly < 6 mm for this compound? "CCC/C=C/c1c(OC)cc(C)oc1=O"
Ans: False

Q: Activity strictly < 6 mm for this compound? "CCCC/C=C/c1c(OC)cc(C)oc1=O"
Ans: False

Q: Activity strictly < 6 mm for this compound? "CCCCCC/C=C/c1c(OC)cc(=O)oc1C"
Ans: False

Q: Activity strictly < 6 mm for this compound? "COc1ccc(-c2c(OC)cc(=O)oc2C)cc1"
Ans: True

Q: Activity strictly < 6 mm for this compound? "COc1cc(C)oc(=O)c1-c1ccc(Cl)cc1"
Ans: False

====

Please respond with reported Growth for every item in the list.
# Tested on: Fusarium oxysporum
# assay protocol: Percent growth of Fusarium oxysporum after 7 days of incubation
# Assay type: functional
# Parameters: concentration or dose not given beside the values
Answer by giving the amount and then stating its unit.

Q: Entry under review: "COc1cc(C)oc(=O)c1-c1ccc(C=O)cc1" . Reported Growth?
Ans: 60%

Q: Entry under review: "COc1cc(C)oc(=O)c1-c1cccc([N+](=O)[O-])c1" . Reported Growth?
Ans: 60%

Q: Entry under review: "COc1ccc(-c2c(OC)cc(C)oc2=O)cc1" . Reported Growth?
Ans: 60%

Q: Entry under review: "CCCC/C=C/c1c(OC)cc(C)oc1=O" . Reported Growth?
Ans: 48%

Q: Entry under review: "CCCC/C=C/c1c(OC)cc(=O)oc1C" . Reported Growth?
Ans: 35%

Q: Entry under review: "COc1cc(=O)oc(C)c1-c1ccccc1" . Reported Growth?
Ans: 51%

Q: Entry under review: "CCC/C=C/c1c(OC)cc(=O)oc1C" . Reported Growth?
Ans: 35%

====

# Tested on: Escherichia coli
# assay protocol: Antimicrobial activity against Escherichia coli was determined after 96 hours of incubation
# Type: functional
Please respond with reported Activity for every item in the list.
Answer by giving the amount and then stating its unit.

Q: Entry under review: "CCC/C=C/c1c(OC)cc(=O)oc1C" . Reported Activity?
Ans: 17 mm

Q: Entry under review: "CCCCCC/C=C/c1cc(C)oc(=O)c1" . Reported Activity?
Ans: 20 mm

Q: Entry under review: "CCCC/C=C/c1cc(C)oc(=O)c1" . Reported Activity?
Ans: 18 mm

====

Please respond with reported Growth for every item in the list.
# Tested on: Aspergillus niger
# assay protocol: Percent growth of Aspergillus niger after 72 hours of incubation
# Type: functional
# Parameters: concentration or dose not given beside the values
Quick reminder: number only, in %, skip the unit.

Q: Entry under review: "CCC/C=C/c1c(OC)cc(=O)oc1C" . Reported Growth?
Ans: 82

Q: Entry under review: "CCCCCC/C=C/c1cc(C)oc(=O)c1" . Reported Growth?
Ans: 89

Q: Entry under review: "CCCCC/C=C/c1c(OC)cc(C)oc1=O" . Reported Growth?
Ans: 90

Q: Entry under review: "CCC/C=C/c1c(OC)cc(C)oc1=O" . Reported Growth?
Ans: 93

Q: Entry under review: "CCCCCC/C=C/c1c(OC)cc(=O)oc1C" . Reported Growth?
Ans: 90

Q: Entry under review: "CCCC/C=C/c1cc(C)oc(=O)c1" . Reported Growth?
Ans: 92

Q: Entry under review: "CCCCC/C=C/c1cc(C)oc(=O)c1" . Reported Growth?
Ans: 89

Q: Entry under review: "COc1cc(=O)oc(C)c1-c1ccccc1" . Reported Growth?
Ans: 71

Q: Entry under review: "CCCC/C=C/c1c(OC)cc(C)oc1=O" . Reported Growth?
Ans: 77

====

# Test system: Aspergillus niger
# assay protocol: Percent growth of Aspergillus niger after 72 hours of incubation
# Type: functional
# Parameters: concentration or dose not given beside the values
Label true (1) when Growth is at or above 80%; otherwise label false (0).

Q: Item "CCC/C=C/c1cc(C)oc(=O)c1" with Growth of 80% or above?
Ans: true (1)

Q: Item "COc1cc(C)oc(=O)c1-c1ccc(Cl)cc1" with Growth of 80% or above?
Ans: true (1)

Q: Item "CCCC/C=C/c1c(OC)cc(=O)oc1C" with Growth of 80% or above?
Ans: false (0)

Q: Item "Cc1cc(/C=C/c2ccccc2)cc(=O)o1" with Growth of 80% or above?
Ans: true (1)

Q: Item "COc1cc(C)oc(=O)c1-c1ccccc1" with Growth of 80% or above?
Ans: true (1)

Q: Item "COc1ccc(-c2c(OC)cc(C)oc2=O)cc1" with Growth of 80% or above?
Ans: false (0)

Q: Item "COc1cc(C)oc(=O)c1-c1cccc([N+](=O)[O-])c1" with Growth of 80% or above?
Ans: true (1)

Q: Item "COc1cc(C)oc(=O)c1/C=C/c1ccccc1" with Growth of 80% or above?
Ans: true (1)

Q: Item "CCCCCC/C=C/c1c(OC)cc(C)oc1=O" with Growth of 80% or above?
Ans: true (1)

Q: Item "COc1cc(C)oc(=O)c1-c1ccc(C=O)cc1" with Growth of 80% or above?
Ans: true (1)

Q: Item "COc1cc(=O)oc(C)c1/C=C/c1ccccc1" with Growth of 80% or above?
Ans: false (0)

Q: Item "COc1ccc(-c2c(OC)cc(=O)oc2C)cc1" with Growth of 80% or above?
Ans: true (1)

Q: Item "COc1cc(C)oc(=O)c1-c1ccc(C)cc1" with Growth of 80% or above?
Ans: true (1)

The values you see were collected from ChEMBL document CHEMBL1136151.
